Give measured max response for each item. Keep answers brief.
# Test system: CRL-7250
# assay details: Cytotoxic Profiling of Annotated Libraries Using Quantitative High-Throughput Screening (AID 1296008); also: % is scaled to controls: 0 for no effect and ±100 for the full control effect; nearly all actives have a fitted effect of over 60% in size
# measurement parameters: Five cell lines viability, CellTiter-Glo ATP luminescence, 48-72 h; hits give low values
Results filed as inconclusive are left out.
// units = %; emit number, no label

So what does the record say about max response for CC1=CC23[C@H](C=C(C(=O)O)[C@@H]2COC(=O)[C@]3(O)CO)[C@@H]1C (some centres not stated) ?
-1.44

So what does the record say about max response for COC(=O)C1=COC(O[C@@H]2O[C@H](CO)[C@@H](O)[C@H](O)[C@H]2O)[C@@H]2[C@@](C)(O)[C@@H](OC(=O)/C=C/c3ccccc3)C[C@]12O (some centres not stated) ?
1.9

So what does the record say about max response for CC1(C)CC[C@]2(C(=O)O[C@@H]3O[C@H](CO)[C@@H](O)[C@H](O)[C@H]3O)CC[C@]3(C)C(=CCC4[C@@]5(C)CC[C@H](O[C@@H]6O[C@H](C(=O)O)[C@@H](O[C@@H]7O[C@H](CO)[C@@H](O)[C@H](O)[C@H]7O)[C@H](O)[C@H]6O[C@@H]6O[C@H](CO)[C@@H](O)[C@H](O)[C@H]6O)C(C)(C)C5CC[C@]43C)C2C1 (some centres not stated) ?
-7.32

So what does the record say about max response for "O=C(O)CCc1c(C(=O)O)[nH]c2cc(Cl)cc(Cl)c12" ?
-1.79

So what does the record say about max response for "CC(=O)O[C@H]1C[C@@]2(C)[C@@H](CC[C@H]3[C@@]4(C)C=CC(=O)[C@@H](C)[C@@H]4[C@H](OC(C)=O)C(=O)[C@@]32C)/C1=C(\CCC=C(C)C)C(=O)O" ?
4.49

So what does the record say about max response for "C/C1=C\CC(C)(C)/C=C/C/C(C(=O)O)=C/CC1" ?
-3

So what does the record say about max response for "CC(C)CC[C@@H](O)[C@](C)(O)[C@H]1CC[C@@]2(O)C3=CC(=O)[C@@H]4C[C@@H](O)[C@@H](O)C[C@]4(C)[C@H]3CC[C@]12C" ?
-1.43

So what does the record say about max response for C/C=C/C(=O)OC1/C=C/C(O)C(OC(C)=O)CCC(=O)OC1C (configuration not stated) ?
-1.17

So what does the record say about max response for CC1(C)CC[C@]2(C(=O)O[C@@H]3O[C@H](CO)[C@@H](O)[C@H](O)[C@H]3O)CC[C@]3(C)C(=CCC4[C@@]5(C)CC[C@H](O[C@H]6O[C@H](CO)[C@@H](O)[C@H](O[C@@H]7O[C@H](CO)[C@@H](O)[C@H](O)[C@H]7O)[C@H]6O)C(C)(C)C5CC[C@]43C)[C@@H]2C1 (some centres not stated) ?
-1.95

So what does the record say about max response for "O=C(CCCCC1CCCCC1)N1CCC(c2cnc[nH]2)CC1" ?
-15.2

So what does the record say about max response for "CC(=O)O[C@H]1[C@H](O[C@H]2CC[C@]34C[C@]35CC[C@]3(C)[C@@H]([C@@]6(C)CC[C@@H](C(C)(C)O)O6)[C@@H](O)C[C@@]3(C)[C@@H]5C[C@H](O[C@@H]3O[C@H](CO)[C@@H](O)[C@H](O)[C@H]3O)[C@H]4C2(C)C)OC[C@@H](OC(C)=O)[C@@H]1O" ?
-0.709

So what does the record say about max response for "Cc1ccccc1-n1nc(-c2c(-c3ccc(F)cc3)nn3c2NC[C@@H](CO)C3)ccc1=O" ?
1.82

###

# Test system: HACAT
# assay details: qHTS assay to identify novel small-molecules to repurpose for Merkel cell carcinoma treatment (AID 1296009); also: nearly all actives have a fitted effect of over 60% in size
# measurement parameters: MCC and control cell lines, CellTiter-Glo viability, 72 h; at 44.8 µM (top of the series) unless noted
# From the text: MCC is a rare and aggressive neuroendocrine skin cancer with limited treatment options. Approximately 80% of MCCs have the Merkel cell polyomavirus (MCPyV) DNA integrated into the host genome (virus-positive: VP-MCC) and viral oncogenes drive oncogenesis. The remaining MCCs are virus-negative (VN-MCC) and are caused by UV mutagenesis. […] Using cell viability as a readout (CellTiter-Glo assay) we found both overlapping and distinct drugs that can be repurposed for the treatment of VP-MCC and VN-MCC. […]
Inconclusive results are not listed. Activity calls are given as the source filed them. Calls follow the shape of the dose curve; as a rule, active = well fitted inhibition curve with a large enough effect; inconclusive = small, poorly fitted or top-dose-only effect; inactive = flat fitted curve, though single readings scatter.
measurement type: outcome

CC1(C)CC[C@]2(C(=O)O[C@@H]3O[C@H](CO)[C@@H](O)[C@H](O)[C@H]3O)CC[C@]3(C)C(=CCC4[C@@]5(C)CC[C@H](O[C@H]6O[C@H](CO)[C@@H](O)[C@H](O[C@@H]7O[C@H](CO)[C@@H](O)[C@H](O)[C@H]7O)[C@H]6O)C(C)(C)C5CC[C@]43C)[C@@H]2C1 (stereo partly specified) :: inactive [at 9.27 µM]
COC(=O)[C@@H](NC(=O)[C@H](CC(C)C)NC(=O)N(Cc1ccccc1)C[C@@H](O)[C@H](Cc1ccccc1)NC(=O)OC(C)(C)C)C(C)C :: inactive [at 9.27 µM]
CC1=C[C@H]2[C@@H](CC1=O)[C@H](C)C[C@H](O)[C@H]2C(C)C :: inactive
OC[C@H]1O[C@@H](OCCc2ccccc2)[C@H](O[C@@H]2OC[C@@H](O)[C@H](O)[C@H]2O)[C@@H](O)[C@@H]1O :: inactive [at 17.4 µM]
CC(=O)OC[C@]12[C@@H](OC(=O)c3ccoc3)C[C@@H]3[C@@H](OC(C)=O)[C@]1(OC3(C)C)[C@@](C)(O)C[C@H](OC(=O)c1ccoc1)[C@@H]2OC(=O)c1ccoc1 :: inactive [at 17.4 µM]

# ---- query compound ----
Record lookup: for HACAT, what outcome belongs to CCOC(=O)C1=C(N)Oc2ccc(Cl)cc2C1C(C#N)C(=O)OCC (stereo unspecified) ?
inactive

###

# Test system: JEG-3
# assay details: Primary qHTS to identify gynecologic anti-cancer compounds using libraries of approved drugs and bioactive compounds (AID 1345084); also: % is scaled to controls: 0 for no effect and ±100 for the full control effect; nearly all actives have a fitted effect of over 55% in size
# measurement parameters: Gynecologic cancer cell panel viability, ATPlite luminescence, 48 h; series mostly up to 57.5 µM
Results filed as inconclusive are left out. The source made the active and inactive calls. Calls follow the shape of the dose curve; as a rule, active = well fitted cell-killing curve with a large enough effect; inconclusive = small, poorly fitted or top-dose-only effect, or effect the other way; inactive = flat fitted curve, though single readings scatter.
measurement type: activity change, negative = cytotoxicity

Some entries whose results are on file:
CC(=O)OC1C(O)/C(C)=C\C2C(OC(=O)c3ccccc3)C(C)CC2(OC(C)=O)C(OC(C)=O)C(C)/C=C/C(C)(C)C1OC(C)=O (stereo not given) :: inactive
CC/C=C\C(O)C(O)C1=C(C)C(=O)C2(O1)C(=O)NC(OC)(C(=O)c1ccccc1)C2O (stereo not given) :: inactive
CC(=O)OC[C@@]12C(=O)C[C@@H](C)[C@]3(C[C@@H](c4ccoc4)OC3=O)[C@H]1CC[C@H](OC(C)=O)[C@]21CO1 :: inactive
C[C@@H]1O[C@@H](O[C@@H]2[C@@H](O)[C@H](O[C@@H]3[C@@H](O)[C@@H](O)[C@H](O[C@H]4[C@H](OC(=O)[C@]56CCC(C)(C)C[C@H]5C5=CCC7[C@@]8(C)C[C@H](O)[C@H](O[C@@H]9O[C@H](C(=O)O)[C@@H](O)[C@H](O)[C@H]9O)[C@@](C)(CO)C8[C@H](O)C[C@@]7(C)[C@]5(C)C[C@H]6O)O[C@@H](CO)[C@@H]4O)O[C@H]3C)OC[C@H]2O)[C@H](O)[C@H](O)[C@H]1O (stereo not given in full) :: 3.64% [at 6.55 µM] (inactive)

# ---- query compound ----
So what does the record say about activity change, negative = cytotoxicity for COC(=O)C1=COC(OC2OC(CO)C(O)C(O)C2O)C2C(COC(=O)/C=C/c3ccc(O)c(O)c3)C(O)C(O)C12 (stereo not given) ?
inactive

###

# target entity: Phospholipid hydroperoxide glutathione peroxidase GPX4 (Homo sapiens)
# assay details: Primary qHTS Assay for Inhibitors of Recombinant Selenoprotein Glutathione Peroxidase 4 (GPX4) (AID 1845192); also: % is scaled to controls: 0 for no effect and ±100 for the full control effect; nearly all actives have a fitted effect of over 65% in size
# measurement parameters: recombinant GPX4, GR-coupled NADPH fluorescence, 15 min; series mostly up to 27.8 µM
# Method: Assay Provider: Elias S.J. Arner MD PhD. Department of Medical Biochemistry and Biophysics Karolinska Institutet, Solna, Stockholm, Sweden […] 6; Detection; Fluorescence; ViewLux microplate reader, excitation 340 nm and emission 450 nm. […] 8; Detection; Fluorescence; ViewLux microplate reader, excitation 340 nm and emission 450 nm. […] 6. Initial fluorescence readout (t=0) at 340/450 nm was measured using a ViewLux multimodal detector (PerkinElmer, Waltham, MA). […]
Records with an inconclusive call do not appear. Activity calls are given as the source filed them. The call rests on the fitted dose curve; in most records, active means well fitted inhibition curve with a large enough effect; inconclusive means small, poorly fitted or top-dose-only effect; inactive means flat fitted curve, though single readings scatter.
measurement type: activity change, negative = inhibition

CC1CCC2(C(=O)OC3OC(CO)C(O)C(O)C3O)CCC3(C)C(=CCC4C5(C)CCC(O)C(C)(CO)C5CCC43C)C2C1(C)O (stereo not drawn) :: inactive
CC(=O)OC[C@]12[C@H](OC(C)=O)[C@H](OC(=O)c3ccccc3)[C@@H]3[C@@H](OC(C)=O)[C@]1(OC3(C)C)[C@H](C)C[C@H](OC(=O)c1ccccc1)[C@@H]2OC(=O)c1ccccc1 :: inactive
CC1(C)CC[C@]2(C(=O)O[C@@H]3O[C@H](CO)[C@@H](O)[C@H](O)[C@H]3O)CC[C@]3(C)C(=CCC4[C@@]5(C)C[C@@H](O)[C@H](O)[C@@](C)(CO)C5[C@H](O)C[C@]43C)C2C1 (stereo partly drawn) :: inactive
